- CONDITION_SUMMARY: in ethyl acetate, 293.15 K
OBSERVABLE: solubility (mole fraction)

Exercise: Which value of solubility (mole fraction) has been reported for `O=C(O)C=CC(=O)O.OCCOCCN1CCN(C2=Nc3ccccc3Sc3ccccc32)CC1.OCCOCCN1CCN(C2=Nc3ccccc3Sc3ccccc32)CC1` in the records?
Key: 0.000142

* * *

- CONDITION_SUMMARY: in DMF, 323.15 K
OBSERVABLE: solubility (mole fraction)

Exercise: Which value of solubility (mole fraction) has been reported for `O=C(O)C=CC(=O)O.OCCOCCN1CCN(C2=Nc3ccccc3Sc3ccccc32)CC1.OCCOCCN1CCN(C2=Nc3ccccc3Sc3ccccc32)CC1` in the records?
Key: 0.0123

* * *

- CONDITION_SUMMARY: in water, 323.15 K
OBSERVABLE: solubility (mole fraction)
Quick one: just the number, no unit, thanks!

Exercise: Which value of solubility (mole fraction) has been reported for `O=C(O)C=CC(=O)O.OCCOCCN1CCN(C2=Nc3ccccc3Sc3ccccc32)CC1.OCCOCCN1CCN(C2=Nc3ccccc3Sc3ccccc32)CC1` in the records?
Key: 0.000162

* * *

- CONDITION_SUMMARY: in water, 308.15 K
OBSERVABLE: solubility (mole fraction)

Exercise: Which value of solubility (mole fraction) has been reported for `O=C(O)C=CC(=O)O.OCCOCCN1CCN(C2=Nc3ccccc3Sc3ccccc32)CC1.OCCOCCN1CCN(C2=Nc3ccccc3Sc3ccccc32)CC1` in the records?
Key: 9.31e-05

* * *

- CONDITION_SUMMARY: in isobutanol, 303.15 K
OBSERVABLE: solubility (mole fraction)
Quick one: just the number, no unit, thanks!

Exercise: Which value of solubility (mole fraction) has been reported for `O=C(O)C=CC(=O)O.OCCOCCN1CCN(C2=Nc3ccccc3Sc3ccccc32)CC1.OCCOCCN1CCN(C2=Nc3ccccc3Sc3ccccc32)CC1` in the records?
Key: 0.000204

* * *

- CONDITION_SUMMARY: in isopropanol, 283.15 K
OBSERVABLE: solubility (mole fraction)
Quick one: just the number, no unit, thanks!

Exercise: Which value of solubility (mole fraction) has been reported for `O=C(O)C=CC(=O)O.OCCOCCN1CCN(C2=Nc3ccccc3Sc3ccccc32)CC1.OCCOCCN1CCN(C2=Nc3ccccc3Sc3ccccc32)CC1` in the records?
Key: 0.000107

* * *

- CONDITION_SUMMARY: in acetone, 303.15 K
OBSERVABLE: solubility (mole fraction)
Quick one: just the number, no unit, thanks!

Exercise: Which value of solubility (mole fraction) has been reported for `O=C(O)C=CC(=O)O.OCCOCCN1CCN(C2=Nc3ccccc3Sc3ccccc32)CC1.OCCOCCN1CCN(C2=Nc3ccccc3Sc3ccccc32)CC1` in the records?
Key: 0.000251

* * *

- CONDITION_SUMMARY: in n-butanol, 323.15 K
OBSERVABLE: solubility (mole fraction)

Exercise: Which value of solubility (mole fraction) has been reported for `O=C(O)C=CC(=O)O.OCCOCCN1CCN(C2=Nc3ccccc3Sc3ccccc32)CC1.OCCOCCN1CCN(C2=Nc3ccccc3Sc3ccccc32)CC1` in the records?
Key: 0.00118

* * *

- CONDITION_SUMMARY: in methanol, 288.15 K
OBSERVABLE: solubility (mole fraction)
Quick one: just the number, no unit, thanks!

Exercise: Which value of solubility (mole fraction) has been reported for `O=C(O)C=CC(=O)O.OCCOCCN1CCN(C2=Nc3ccccc3Sc3ccccc32)CC1.OCCOCCN1CCN(C2=Nc3ccccc3Sc3ccccc32)CC1` in the records?
Key: 0.000453
